Source: patent US20150125470A1

MEASURED_ON: human Siglec-15 V-set domain (human) (UniProt Q6ZMC9)
TEST_NAME: SPR (Biacore T200), antibody captured via anti-human IgG, antigen as analyte, same manner as 10-1
RECORDED_ENDPOINT: Kd (nM)
Entry rule: numbers only, all in nM.

Name the recorded Kd for h#24A3-H2c/L3b (antibody, human IgG2, kappa, V domains shown) VH: QVQLVQSGAEVKKPGASVKVSCKASGYTFPRYDVSWVRQAPGQGLEWIGVIHPGSGGTGYNEKFKARVTITADTSTSTAYMELSSLRSEDTAVYYCARRGLNKGYWFFDFWGQGTLVTVSS VL: DIVMTQSPDSLAVSLGERATINCKASQNVGSNVDWYQQKPGQSPKLLIYESTNRYTGVPDRFTGSGSGTDFTLTISSLQAEDVAVYYCMQSNFFPFTFGQGTKVEIKR .
0.015

Note, next up: h#24A3-H2/L1 (antibody, human IgG2, kappa, V domains shown) VH: QVQLVQSGAEVKKPGASVKVSCKASGYTFPRYDVSWVRQAPGQGLEWMGVIHPGSGGTGYNEKFKARVTITADTSTSTAYMELSSLRSEDTAVYYCARRGLNSGYWFFDFWGQGTLVTVSS VL: DIVMTQSPDSLAVSLGERATINCKASQNVGSNVDWYQQKPGQPPKLLIYESTNRYTGVPDRFSGSGSGTDFTLTISSLQAEDVAVYYCMQSNFFPFTFGQGTKVEIKR
0.031

Note, next up: h#24A3-H2c/L2b (antibody, human IgG2, kappa, V domains shown) VH: QVQLVQSGAEVKKPGASVKVSCKASGYTFPRYDVSWVRQAPGQGLEWIGVIHPGSGGTGYNEKFKARVTITADTSTSTAYMELSSLRSEDTAVYYCARRGLNKGYWFFDFWGQGTLVTVSS VL: DIVMTQSPDSLAVSLGERATINCKASQNVGSNVDWYQQKPGQSPKLLIYESTNRYTGVPDRFSGSGSGTDFTLTISSLQAEDVAVYYCMQSNFFPFTFGQGTKVEIKR
0.013
